IC50 data for COX-2 (Homo sapiens, UniProt P35354) follow.
measured_attribute: IC50

molecule="COc1ccc(Nc2n[nH]c(N=Cc3c[nH]c4ccccc34)c2C(=O)Nc2ccc(C)cc2)cc1 [14d]" measured="22 µM"
molecule="O=C(Nc1ccccc1)c1c(Nc2ccccc2)n[nH]c1N=Cc1c[nH]c2ccccc12 [14a]" measured="16.7 µM"
molecule="CCN1C(=O)C(=Nc2[nH]nc(Nc3ccccc3)c2C(=O)Nc2ccccc2)c2ccccc21 [12e]" measured="43.3 µM"
molecule="Cc1ccc(NC(=O)c2c(Nc3ccccc3)n[nH]c2N=Cc2c[nH]c3ccccc23)cc1 [14b]" measured="12.4 µM"
molecule="COc1ccc(Nc2n[nH]c(N=C3C(=O)N(C)c4ccccc43)c2C(=O)Nc2ccc(C)cc2)cc1 [12d]" measured="35 µM"
molecule="COc1ccc(Nc2n[nH]c(N=C3C(=O)N(C)c4ccccc43)c2C(=O)Nc2ccccc2)cc1 [12c]" measured="35.8 µM"
molecule="CCN1C(=O)C(=Nc2[nH]nc(Nc3ccc(OC)cc3)c2C(=O)Nc2ccccc2)c2ccccc21 [12g]" measured="34.4 µM"
molecule="Cc1ccc(NC(=O)c2c(Nc3ccccc3)n[nH]c2N=C2C(=O)N(C)c3ccccc32)cc1 [12b]" measured="40.9 µM"
molecule="CN1C(=O)C(=Nc2[nH]nc(Nc3ccccc3)c2C(=O)Nc2ccccc2)c2ccccc21 [12a]" measured="45 µM"
molecule="COc1ccc(Nc2n[nH]c(N=Cc3c[nH]c4ccccc34)c2C(=O)Nc2ccccc2)cc1 [14c]" measured="23 µM"
molecule="CCN1C(=O)C(=Nc2[nH]nc(Nc3ccc(OC)cc3)c2C(=O)Nc2ccc(C)cc2)c2ccccc21 [12h]" measured="34.3 µM"
molecule="CCN1C(=O)/C(=N\\c2[nH]nc(Nc3ccccc3)c2C(=O)Nc2ccc(C)cc2)c2ccccc21 [12f]" measured="39.4 µM"
